Molecular target: T1, Nrd1_(6–151) I130R (S. cerevisiae, UniProt P53617 6-151, I130R)
T1 sequence: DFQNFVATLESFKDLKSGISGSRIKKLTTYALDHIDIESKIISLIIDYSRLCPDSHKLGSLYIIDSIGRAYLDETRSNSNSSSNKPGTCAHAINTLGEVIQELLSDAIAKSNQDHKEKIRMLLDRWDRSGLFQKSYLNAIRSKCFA
Test: fluorescence polarisation
Where no end group is shown, it is not given here. [ ]: non-standard residue; d: D form. pS = N[C@@H](COP(=O)(O)O)C(=O)O
observationType: Kd (µM)
Answers are plain numbers, in µM.

Please look up its Kd: Y[pS]PTSPSY[pS]PTSPS [unlabeled double-repeat CTD-Ser2P peptide]
550
